Give measured pEC50 for each item. Keep answers brief.
Target: A. baumannii PBP1a (Acinetobacter baumannii)
Sequence (A0ABX6CK30 1-851): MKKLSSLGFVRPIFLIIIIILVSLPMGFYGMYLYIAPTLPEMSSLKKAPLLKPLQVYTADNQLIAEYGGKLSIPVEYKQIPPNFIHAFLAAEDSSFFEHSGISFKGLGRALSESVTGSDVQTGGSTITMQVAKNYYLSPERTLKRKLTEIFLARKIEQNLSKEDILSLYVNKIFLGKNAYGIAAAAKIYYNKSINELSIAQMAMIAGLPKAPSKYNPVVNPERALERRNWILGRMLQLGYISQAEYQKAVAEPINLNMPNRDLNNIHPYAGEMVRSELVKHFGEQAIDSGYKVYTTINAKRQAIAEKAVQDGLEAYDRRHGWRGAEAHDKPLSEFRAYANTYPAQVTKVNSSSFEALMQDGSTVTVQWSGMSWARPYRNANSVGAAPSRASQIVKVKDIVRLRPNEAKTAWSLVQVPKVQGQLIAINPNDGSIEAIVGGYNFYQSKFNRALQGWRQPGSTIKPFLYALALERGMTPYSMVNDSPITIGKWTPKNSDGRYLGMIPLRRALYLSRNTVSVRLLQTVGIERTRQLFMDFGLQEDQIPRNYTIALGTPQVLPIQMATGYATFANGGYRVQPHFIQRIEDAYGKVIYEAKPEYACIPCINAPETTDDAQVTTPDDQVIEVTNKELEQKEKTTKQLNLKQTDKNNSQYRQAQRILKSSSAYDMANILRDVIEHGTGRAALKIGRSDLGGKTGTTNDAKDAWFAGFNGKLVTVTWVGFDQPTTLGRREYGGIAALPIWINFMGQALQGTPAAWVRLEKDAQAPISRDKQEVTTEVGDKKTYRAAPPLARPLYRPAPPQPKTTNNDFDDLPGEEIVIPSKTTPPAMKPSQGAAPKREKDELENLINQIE
Assay: Bocillin-FL competition binding via gel filtration, A. baumannii PBP1a
Details: competition binding assay using Bocillin-FL via gel filtration; read-out: A. baumannii PBP1a Potency
pEC50: −log10 of the molar value.

Some compounds with recorded pEC50:
- compound: "O=C(O)c1c(F)ccc2c1OB(O)[C@@H](NC(=O)[C@H](NC(=O)N1CCN(C3CCN(Cc4cc(O)ccc4F)CC3)C1=O)c1cc(F)c(O)c(O)c1Cl)C2 (single isomer, unassigned) [Example 608]"
  result: "> 5.00"
- compound: "O=C(O)c1c(F)ccc2c1OB(O)[C@@H](NC(=O)[C@H](NC(=O)N1CCN(C3CCN(C(=O)c4ccncc4)CC3)C1=O)c1cc(F)c(O)c(O)c1Cl)C2 [Example 461]"
  result: "4.30 to 5.00"
- compound: "O=C(NCCN1CCN(C(=O)NC(C(=O)N[C@H]2Cc3ccc(F)c(C(=O)O)c3OB2O)c2cc(F)c(O)c(O)c2Cl)C(=O)C1=O)c1ccncc1 (some centres unmarked) [Example 216]"
  result: "4.30 to 5.00"

I need pEC50 for every entry listed below, if you could help.
1. O=C(O)c1c(F)ccc2c1OB(O)[C@@H](NC(=O)C(NC(=O)N1CCN(C3CCN(S(=O)(=O)c4ccc(O)cc4)CC3)C(=O)C1=O)c1cc(F)c(O)c(O)c1Cl)C2 (some centres unmarked) [Example 429]
2. O=C(NCCN1CCN(C(=O)N[C@@H](C(=O)N[C@H]2Cc3ccc(F)c(C(=O)O)c3OB2O)c2cc(F)c(O)c(O)c2Cl)C1=O)Nc1ccc(O)cc1 [Example 279]

stdout:
["> 5.00", "> 5.00"]

Origin of measurements: patent US20240270762A1
